protocol_notes: chemical genetic growth profiling, strain panel (AID 1159580);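 also: tested at 20 µM; growth read once vehicle control cultures reached saturation at 30 °C; 1 = growth at the plate median or of vehicle wells; lower values mean less growth of the strain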
measurement_setup: S. cerevisiae deletion strains, growth OD, locus YOR316C, strain cot1, active compounds read low
Among all 5,500 compounds or so, about 2,000 (36%) were called active. Roughly 18% stayed inconclusive and do not appear here. The list shows a part of the results.
Kindly state normalized growth for each of the entries shown.
Form field (numeric): enter value without unit.

Requested field: normalized growth. Item: C=C1CCC2C(CC2(C)C)C(=O)CCC1O (stereo unspecified) 1.03

Requested field: normalized growth. Item: C/C1=C\CCC(=O)C2CC(C)(C)C2CC1 (stereo unspecified) 1.03

Requested field: normalized growth. Item: C=C1CCC(C2CC(=O)OC2=O)C(=O)CCC2C1CC2(C)C (stereo unspecified) 1.02

Requested field: normalized growth. Item: CO/N=C(\C(=O)N[C@@H]1C(=O)N2C(C(=O)O)=C(CSc3nc(=O)c(O)nn3C)CS[C@H]12)c1csc(N)n1 0.982

Requested field: normalized growth. Item: C=C1CCC(=O)C(C)CCC2C1CC2(C)C (stereo unspecified) 0.998

Requested field: normalized growth. Item: C=C1CCC2C(CC2(C)C)C(=C)CC/C1=N\O (stereo unspecified) 1

---

protocol_notes: chemical genetic growth profiling, strain panel (AID 1159580)
measurement_setup: S. cerevisiae deletion strains, growth OD, locus YOL147C, strain pex11, active compounds read low
Among all 5,500 compounds or so, about 2,000 (36%) were called active. About 18% were inconclusive and are not listed. This is one part of the list.
API: label(entry) gives 1 if the entry's normalized growth is strictly smaller than 1; on equality or larger values it gives -1.

I wonder whether CO[C@@]1(NC(=O)CSCC#N)C(=O)N2C(C(=O)O)=C(CSc3nnnn3C)CSC21 (stereo partly specified) has normalized growth below 1. Can you tell? -1

I wonder whether C=CCCCCCCCCCCCC(O)CC(O)COC(C)=O (stereo unspecified) (tested in a mixture with another compound) has normalized growth below 1. Can you tell? 1

I wonder whether CC1=CC2C(CC1=O)C(C)=CCC2C(C)C (stereo unspecified) has normalized growth below 1. Can you tell? 1

I wonder whether CC(=O)OCC[C@H](C)CCC=C(C)C has normalized growth below 1. Can you tell? -1

I wonder whether Cc1ccc(C)c(OCCCC(C)(C)C(=O)O)c1 has normalized growth below 1. Can you tell? 1

---

Kindly state normalized growth for each of the entries shown.
protocol_notes: chemical genetic growth profiling, strain panel (AID 1159580);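 also: tested at 20 µM; growth read once vehicle control cultures reached saturation at 30 °C; 1 = growth at the plate median or of vehicle wells; lower values mean less growth of the strain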
measurement_setup: S. cerevisiae deletion strains, growth OD, locus YAL040C, strain CLN3, active compounds read low
Hit rate of the full screen: of about 5,500 compounds, about 2,000 (36%) were called active. Another 18% or so got no clear call; they are omitted. Some of the results follow.
Form field (numeric): enter value without unit.

Requested field: normalized growth. Item: NC(N)=NCCC[C@H](N)C(=O)O 1.09

Requested field: normalized growth. Item: COc1ccc2c(c1)c(CC(=O)O)c(C)n2Cc1ccc(F)cc1 0.985

Requested field: normalized growth. Item: COc1nc(C)nc(Cl)c1NC1=NCCN1 0.999

Requested field: normalized growth. Item: Clc1cccc(Cl)c1NC1=NCCN1 0.999

Requested field: normalized growth. Item: COC(=O)C1=CCCN(C)C1 0.997

Requested field: normalized growth. Item: Clc1ccc(Cn2c(CN3CCCC3)nc3ccccc32)cc1 1.01

Requested field: normalized growth. Item: C[Se]C[C@H](N)C(=O)O 1.05

Requested field: normalized growth. Item: NC(=O)c1cccc(N)c1 1

Requested field: normalized growth. Item: CO/N=C(/C(=O)N[C@@H]1C(=O)N2C(C(=O)O)=C(CSc3nc(=O)c(O)nn3C)CSC12)c1csc(N)n1 (some centres not stated) 1

Requested field: normalized growth. Item: CC(C)(Oc1ccc(C2CC2(Cl)Cl)cc1)C(=O)O (configuration not stated) 0.988

Requested field: normalized growth. Item: CC(C)COCC(CN(Cc1ccccc1)c1ccccc1)N1CCCC1 (configuration not stated) 1.09

Requested field: normalized growth. Item: CC[N+](CC)(CC)CCOc1cccc(OCC[N+](CC)(CC)CC)c1OCC[N+](CC)(CC)CC 1.01

---

protocol_notes: chemical genetic growth profiling, strain panel (AID 1159580);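 also: tested at 20 µM; growth read once vehicle control cultures reached saturation at 30 °C; 1 = growth at the plate median or of vehicle wells; lower values mean less growth of the strain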
measurement_setup: S. cerevisiae deletion strains, growth OD, locus YDR318W, strain mcm21, active compounds read low
Out of some 5,500 compounds screened, about 2,000 (36%) were called active. Roughly 18% stayed inconclusive and do not appear here. The list shows a part of the results.
metric_name: normalized growth
Form field (numeric): enter value without unit.

Requested field: normalized growth. Item: COc1cc(-c2coc3cc(OCc4ccccc4)c(OC)c(O)c3c2=O)cc(O)c1OC 0.877

Requested field: normalized growth. Item: C=C1C(C)C2C(Cc3ccccc3)NC(=O)C23OC(=O)/C=C/C(O)CCCC(C)C/C=C/C3C1O (stereo not given) 1

Requested field: normalized growth. Item: CC(C)NNC(=O)c1ccncc1 1.02

Requested field: normalized growth. Item: COc1cc2occ(-c3ccccc3)c(=O)c2c(OC)c1C 0.891

Requested field: normalized growth. Item: CO/N=C(\C(=O)N[C@@H]1C(=O)N2C(C(=O)O)=C(CSc3nc(=O)c(O)nn3C)CS[C@H]12)c1csc(N)n1 0.982

Requested field: normalized growth. Item: CO/N=C(\C(=O)NC1C(=O)N2C(C(=O)O)=C(COC(N)=O)CSC12)c1ccco1 (stereo not given) 0.062

Requested field: normalized growth. Item: CC1(C)C2CC(=O)[C@]3(C)C(CC[C@@]4(C)[C@H](c5ccoc5)OC(=O)[C@H]5O[C@]543)[C@@]2(C)C=C[C@@H]1O (stereo not given in full) 0.99

Requested field: normalized growth. Item: CCC(C)c1cnc(CC(C)C)c(=O)n1O (stereo not given) 1.03

Requested field: normalized growth. Item: O=S1OCC2C(CO1)C1(Cl)C(Cl)=C(Cl)C2(Cl)C1(Cl)Cl (stereo not given) 0.973

Requested field: normalized growth. Item: CC1(C)NC(=O)N(c2ccc([N+](=O)[O-])c(C(F)(F)F)c2)C1=O 0.994

Requested field: normalized growth. Item: C[N+]1(C)C2CC(OC(=O)[C@@H](CO)c3ccccc3)CC1C1OC12 (stereo not given in full) 1.03

Requested field: normalized growth. Item: COC(=O)C(O)c1ccccc1 (stereo not given) 0.985

Requested field: normalized growth. Item: Nc1nc2ncc(=O)[nH]c2c(=O)[nH]1 0.993

Requested field: normalized growth. Item: CC(C(=O)O)c1ccc(C(=O)c2cccs2)cc1 (stereo not given) 1.02

Requested field: normalized growth. Item: C=C1C(=O)O[C@@H]2C[C@@]3(C)CCC[C@H](C)C3=C[C@H]12 0.814

Requested field: normalized growth. Item: Cc1ccc(C)c(OCCCC(C)(C)C(=O)O)c1 0.866

Requested field: normalized growth. Item: CC[C@H](C)C(=O)O[C@H]1C[C@@H](C)C=C2C=C[C@H](C)[C@H](CC[C@@H]3C[C@@H](O)CC(=O)O3)[C@H]21 0.996

Requested field: normalized growth. Item: CO/N=C(\C(=O)N[C@@H]1C(=O)N2C(C(=O)O)=C(COC(C)=O)CS[C@H]12)c1csc(N)n1 0.996

Requested field: normalized growth. Item: O=C(O)CN(CC(=O)O)Cc1cc2c(-c3ccccc3C(=O)O)c3cc(CN(CC(=O)O)CC(=O)O)c(=O)cc-3oc2cc1O 1.02

Requested field: normalized growth. Item: C=C1C(C)C2C(Cc3ccccc3)NC(=O)C23OC(=O)/C=C/C(=O)CCCC(C)C/C=C/C3C1O (stereo not given) 0.958

---

protocol_notes: chemical genetic growth profiling, strain panel (AID 1159580);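 also: tested at 20 µM; growth read once vehicle control cultures reached saturation at 30 °C; 1 = growth at the plate median or of vehicle wells; lower values mean less growth of the strain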
measurement_setup: S. cerevisiae deletion strains, growth OD, locus YLR113W, strain HOG1, active compounds read low
In all, about 5,500 compounds went through this assay and about 2,000 (36%) were called active. Roughly 18% stayed inconclusive and do not appear here. The list shows a part of the results.
Kindly state normalized growth for each of the entries shown.

Requested field: normalized growth. Item: Cn1c(=O)c2[nH]cnc2n(C)c1=O 0.99 (inactive)

Requested field: normalized growth. Item: CCCC(=O)O[C@]1(C(=O)CO)CCC2[C@@H]3CCC4=CC(=O)CC[C@]4(C)C3[C@@H](O)C[C@@]21C (stereo partly drawn) 1.07 (inactive)

Requested field: normalized growth. Item: Cc1cccc(NC(=S)NNC(=O)CSCc2cccc3ccccc23)c1 0.962 (inactive)

Requested field: normalized growth. Item: CC(=O)ON=C1c2cc([N+](=O)[O-])ccc2-c2ccc([N+](=O)[O-])cc21 0.789 (active)

Requested field: normalized growth. Item: Clc1cccc(Cl)c1NC1=NCCN1 0.951 (inactive)

Requested field: normalized growth. Item: Cc1onc(-c2c(F)cccc2Cl)c1C(=O)NNc1cc(Cl)cc(Cl)c1 0.798 (active)

Requested field: normalized growth. Item: CC(C)(CCC(C)(C)N1C(=O)c2cccc3cccc(c23)C1=O)N1C(=O)c2cccc3cccc(c23)C1=O 0.166 (active)

Requested field: normalized growth. Item: OC(CN1CCN(c2nc3ccc(Cl)cc3s2)CC1)Cn1ccc2ccccc21 (stereo not drawn) 0.864 (inactive)

Requested field: normalized growth. Item: OC(=Cc1nc2ccccc2nc1C=C(O)c1ccc(Cl)cc1)c1ccc(Cl)cc1 0.902 (inactive)

Requested field: normalized growth. Item: O=C1OC(c2ccc(O)cc2)(c2ccc(O)cc2)c2ccccc21 0.974 (inactive)

Requested field: normalized growth. Item: O=C1OC2(c3ccc(O)cc3Oc3cc(O)ccc32)c2ccccc21 0.98 (inactive)

Requested field: normalized growth. Item: O=C(NNc1ccc(I)cc1)c1cc(Cl)cc(Cl)c1 0.498 (active)

Requested field: normalized growth. Item: CCCCCCCCCCCC(=O)NOC(=O)c1c(-c2c(Cl)cccc2Cl)noc1C 0.415 (active)

Requested field: normalized growth. Item: COC(=O)C(O)c1ccccc1 (stereo not drawn) 0.983 (inactive)

Requested field: normalized growth. Item: O=C(C1CCCCC1)N1CC(=O)N2CCc3ccccc3C2C1 (stereo not drawn) 1.01 (inactive)

Requested field: normalized growth. Item: CO/N=C(\C(=O)N[C@@H]1C(=O)N2C(C(=O)O)=C(COC(C)=O)CS[C@H]12)c1csc(N)n1 0.99 (inactive)

Requested field: normalized growth. Item: C/C1=C\CCC(=O)C2CC(C)(C)C2CC1 (stereo not drawn) 1.03 (inactive)

Requested field: normalized growth. Item: Cc1cc(NC(=O)C2=C(O)c3ccccc3S(=O)(=O)N2C)no1 0.929 (inactive)

Requested field: normalized growth. Item: C[C@@H]1C(=O)OC2[C@H](O)C34[C@@H]5OC(=O)[C@@]3(O[C@@H]3OC(=O)[C@H](O)[C@@]34[C@H](C(C)(C)C)[C@H]5O)[C@]21O (stereo partly drawn) 0.997 (inactive)

Requested field: normalized growth. Item: O=[N+]([O-])c1ccc2oc(C(O)c3ccc(-c4ccccc4)cc3)cc2c1 (stereo not drawn) 0.882 (inactive)

Requested field: normalized growth. Item: Cc1nc(-c2ccc(S(=O)(=O)Nc3ccc(Br)cc3Cl)s2)cs1 0.635 (active)

Requested field: normalized growth. Item: CO/N=C(\C(=O)N[C@@H]1C(=O)N2C(C(=O)O)=C(CSc3nc(=O)c(O)nn3C)CS[C@H]12)c1csc(N)n1 1.04 (inactive)

Requested field: normalized growth. Item: Cc1c(Cl)cccc1Nc1ccccc1C(=O)O 0.566 (active)

Requested field: normalized growth. Item: CCc1ccn2cc(Nc3ccccc3Cl)nc2c1 0.916 (inactive)

Requested field: normalized growth. Item: CO/N=C(\C(=O)NC1C(=O)N2C(C(=O)OC(C)OC(C)=O)=C(COC(N)=O)CSC12)c1ccco1 (stereo not drawn) 1 (inactive)

Requested field: normalized growth. Item: N[C@@H](CC(=O)N1CCn2c(nnc2C(F)(F)F)C1)Cc1cc(F)c(F)cc1F 0.978 (inactive)

Requested field: normalized growth. Item: O=[N+]([O-])c1ccc2c(c1)NC(c1ccc([N+](=O)[O-])s1)O2 (stereo not drawn) 0.187 (active)

Requested field: normalized growth. Item: C=C1CCC(C2CC(=O)OC2=O)C(=O)CCC2C1CC2(C)C (stereo not drawn) 0.946 (inactive)

Requested field: normalized growth. Item: COC(=O)c1sccc1-c1ccc(/C=C/[N+](=O)[O-])o1 0.181 (active)

Requested field: normalized growth. Item: CN1C(C(=O)Nc2ccccn2)=C(O)c2ccccc2S1(=O)=O 0.934 (inactive)

Requested field: normalized growth. Item: O=C(/C=C/Sc1nc2ccccc2s1)c1ccc(Cl)cc1 0.593 (active)

Requested field: normalized growth. Item: NC(CO)C(=O)NNCc1ccc(O)c(O)c1O (stereo not drawn) 1.1 (inactive)

Requested field: normalized growth. Item: CC(C)NCC(O)COc1cccc2ccccc12 (stereo not drawn) 0.976 (inactive)

Requested field: normalized growth. Item: O=C(Nc1ccc(Cl)cc1)OCCSc1nc2ccccc2s1 0.859 (active)

Requested field: normalized growth. Item: CC(C)(C)CC(C)(C)c1ccc(O)c(Cc2ccc(Cl)cc2Cl)c1 1.03 (inactive)

Requested field: normalized growth. Item: NS(=O)(=O)c1cc2c(cc1Cl)NC(C(Cl)Cl)NS2(=O)=O (stereo not drawn) 0.996 (inactive)

Requested field: normalized growth. Item: Cc1cccc(C)c1NC1=NCCCS1 1.04 (inactive)

Requested field: normalized growth. Item: CCCCN(C)C(=O)c1cc([N+](=O)[O-])cc2c1-c1ccc([N+](=O)[O-])cc1C2=C(C#N)C#N 0.871 (inactive)

Requested field: normalized growth. Item: CC(C)COCC(CN(Cc1ccccc1)c1ccccc1)N1CCCC1 (stereo not drawn) 1.01 (inactive)

Requested field: normalized growth. Item: CO/N=C(\C(=O)NC1C(=O)N2C(C(=O)O)=C(COC(N)=O)CSC12)c1ccco1 (stereo not drawn) 1.07 (inactive)

Requested field: normalized growth. Item: O=C(O)c1ccccc1-c1c2cc(Br)c(=O)cc-2oc2[c]([Hg])c(O)c(Br)cc12 0.485 (active)

Requested field: normalized growth. Item: Oc1ccc(Cl)cc1Cc1cc(Cl)ccc1O 0.165 (active)

Requested field: normalized growth. Item: Cc1cccc(Nc2ccccc2C(=O)O)c1C 0.903 (inactive)
